Taken from patent US20230365705A1.

Target: T1, Human CD93 on cells (human CD93 expressing CHO cells; HUVEC, U937 and KG1a cells) (human, UniProt Q9NPY3 22-652)
T1 construct: whole, on cells; also called hCD93 expressing CHO cells; hCD93 CHO cells
T1 sequence (looked up): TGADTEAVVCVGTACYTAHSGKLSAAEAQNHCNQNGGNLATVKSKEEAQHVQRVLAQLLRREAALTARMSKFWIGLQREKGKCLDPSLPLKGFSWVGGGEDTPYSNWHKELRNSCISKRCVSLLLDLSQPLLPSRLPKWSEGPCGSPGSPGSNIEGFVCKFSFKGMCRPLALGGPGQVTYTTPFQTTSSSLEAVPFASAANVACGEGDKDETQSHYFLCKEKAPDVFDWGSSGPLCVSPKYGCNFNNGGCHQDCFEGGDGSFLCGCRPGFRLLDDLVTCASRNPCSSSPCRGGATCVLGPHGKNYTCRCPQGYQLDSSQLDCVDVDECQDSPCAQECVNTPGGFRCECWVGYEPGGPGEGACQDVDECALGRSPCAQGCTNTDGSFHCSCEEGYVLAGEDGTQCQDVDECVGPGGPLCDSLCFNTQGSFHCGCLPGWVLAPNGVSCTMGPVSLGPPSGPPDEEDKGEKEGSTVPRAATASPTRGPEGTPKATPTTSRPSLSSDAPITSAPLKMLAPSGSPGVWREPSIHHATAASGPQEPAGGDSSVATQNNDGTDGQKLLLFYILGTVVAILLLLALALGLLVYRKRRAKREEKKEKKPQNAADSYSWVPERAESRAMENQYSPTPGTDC
Assay: flow cytometry, CD93 expressing CHO cells, antibody 10 ug/ml, FITC-A
VALUE_TYPE: binding result

BINDER	RESULT
19E12 (antibody, V domains shown, Mouse hybridoma monoclonal antibody) VH: QVQLQQSGAELVRPGASVKLSCKASGYTFTDYEMHWVRQTPVHGLEWIGGIDPETGGTAYNQKFKGKATLTADKSSSTAYMELRSLTSEDSAVYYCTRGAWFAYWGQGTLVTVSA VL: QAVVTQESALTTSPGETVTLTCRSSTGAVTTSNSANWVQEKPDHLFTGLIGGTNNRAPGVPARFSGSLIGDKAALTITGAQTEDEAIYFCALWYNNHFVFGGGTKLTVL	binds
17A7 (antibody, V domains shown, Mouse hybridoma monoclonal antibody) VH: QVQLQQSGPELVKPGASVKISCKGSGYAFSTYWMNWVKQRPGKGLEWIGRIFPGDGDTDYDGKFKGKATLTADKSSNTAYMQLSSLTSEDSAVYFCARTGAAYEFDPFPYWGQGTLVTVSA VL: DIVMTQAAFSNPVTLGTSASISCSSTKSLLHSSGITYLYWYLQRPGQSPQLLIYRMSNLASGVPDRFSGSGSGTDFTLRISRVEAEDVGVYYCAQMLERPFTFGSGTKLEIK	binds
16B6 (antibody, V domains shown, Mouse hybridoma monoclonal antibody) VH: QVQLQQSGPELVKPGASVKISCKASGYAFSRSWMNWVKQRPGKGLEWIGWIYPGDGDTNYNGKFKGKATLTADKSSSTAYMQLSSLTSEDSAAYFCARSATLPYWYFDVWGAGTTVTVSS VL: DIKMTQSPSSMYASLGERVTITCKASQDIKSYLSWYQQKPWKSPKTLIYYATNLADGVPSRFSGSGSGQDYSLTISSLGSDDTATYYCLQHVESPWTFGGGTKLEIK	binds
